System: ATP;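 also: ATP exposure 15 min at 22 °C before imaging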
Assay text: switch fluorescence ratio, 500 uM ATP over buffer (Cy3 cluster intensity, sum of 5 cycles each) (fold (ratio)); higher = stronger signal-on switching upon ATP binding; sequences stand for … in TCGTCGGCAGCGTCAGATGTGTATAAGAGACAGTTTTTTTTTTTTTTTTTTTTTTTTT…TC
Experimental parameters: aptamer strand: ATP DNA aptamer (quencher-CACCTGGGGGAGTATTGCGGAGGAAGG + anchor), 100 nM annealed; ATP concentration: 500 uM
Output TRUE for switch fluorescence ratio not less than 1; output FALSE otherwise.

{"columns": ["Sequence code", "Answer label"],
 "data": [
  ["AGCGAATGGT", "FALSE"]
]}

Here's the next entry for you.
Threshold query (switch fluorescence ratio >= 1) on TTTGTTAGAC
TRUE
